assay: clinical
applied_conditions: human, in vivo, 20 mg, Vz/Fss
measured_property: Vd/F (L)
Kindly answer with a numeric value in L, unit omitted.

Task: Entry `CN(C)C/C=C/C(=O)Nc1cc2c(Nc3ccc(F)c(Cl)c3)ncnc2cc1O[C@H]1CCOC1` has what Vd/F?
Result: 2740

---

assay: clinical
applied_conditions: human, in vivo, 20 mg, AUC0–24,ss
measured_property: AUC(0-t) (ng·h/mL)
The answer is to be given in ng·h/mL; state only the numeric part.

Task: Which AUC(0-t) value belongs to `CN(C)C/C=C/C(=O)Nc1cc2c(Nc3ccc(F)c(Cl)c3)ncnc2cc1O[C@H]1CCOC1` ?
Result: 455
